Tested on: APAE001 (ATCC27853)
assay-remarks: MIC broth microdilution, APAE001
Type: cell-based, P. aeruginosa
settings: Pseudomonas aeruginosa, ATCC27853, read-out: MIC APAE001, APAE001 is ATCC27853
parameter: MIC

Ask | Answer briefly: MIC recorded on APAE001 (ATCC27853) for C[C@@H](N)[C@H](NC(=O)c1ccc(C#Cc2ccc(CN3CCC(F)(F)C3)cc2)cc1)C(=O)NO
Reply | 2 to 16 µg/mL

Ask | Under APAE001 (ATCC27853): report MIC of O=C(N[C@H](C(=O)NO)C1CCOCC1)c1ccc(/C=C/C#Cc2ccc(CN3CCOCC3)cc2)cc1 .
Reply | 2 to 16 µg/mL

Ask | # assay system APAE001 (ATCC27853): give MIC of O=C(CNC1CC1)NC[C@H](NC(=O)c1ccc(C#CC#Cc2ccccc2)cc1)C(=O)NO
Reply | 2 to 16 µg/mL

Ask | Give MIC only, for C[C@@H](N)[C@H](NC(=O)c1ccc(C#Cc2cncnc2)cc1)C(=O)NO , using APAE001 (ATCC27853) data.
Reply | < 2 µg/mL

Ask | Given C[C@@H](N)[C@H](NC(=O)c1ccc(/C=C/C#Cc2ccccc2)cc1)C(=O)NO , report its MIC on APAE001 (ATCC27853).
Reply | < 2 µg/mL

Ask | With APAE001 (ATCC27853) as the test system, provide measured MIC for this compound: C[C@@H](N)[C@H](NC(=O)c1ccc(/C=C/C#Cc2ccncc2)cc1)C(=O)NO
Reply | < 2 µg/mL

Ask | Specify MIC for C[C@@H](O)[C@H](NC(=O)c1ccc(C#Cc2ccc(C(F)(F)F)nc2)cc1)C(=O)NO , system APAE001 (ATCC27853).
Reply | 16 to 64 µg/mL

---

Test system: AABA1060 (clinical isolate of Acinetobacter baumannii)
assay-remarks: MIC broth microdilution, AABA1060
Type: cell-based
settings: Acinetobacter baumannii, read-out: MIC AABA1060
parameter: MIC

Ask | With AABA1060 (clinical isolate of Acinetobacter baumannii) as the test system, provide measured MIC for this compound: C[C@@H](N)[C@H](NC(=O)c1ccc(C#CC2CC2)cc1)C(=O)NO
Reply | 2 to 16 µg/mL

Ask | Name the recorded MIC of CC(C)(O)[C@H](NC(=O)c1ccc(C#CC#Cc2ccc(CO)cc2)cc1)C(=O)NO , assay system AABA1060 (clinical isolate of Acinetobacter baumannii).
Reply | < 2 µg/mL

Ask | Please report MIC with AABA1060 (clinical isolate of Acinetobacter baumannii) for item C[C@@H](N)[C@H](NC(=O)c1ccc(C#Cc2ccc(CNC3CC3)cc2)cc1)C(=O)NO .
Reply | 2 to 16 µg/mL

Ask | Determine reported MIC for C[C@@H](NC(=O)CNC1CC1)[C@H](NC(=O)c1ccc(C#Cc2ccc(CN3CCOCC3)cc2)cc1)C(=O)NO ; test system: AABA1060 (clinical isolate of Acinetobacter baumannii).
Reply | 16 to 64 µg/mL

Ask | Report the value of MIC obtained on AABA1060 (clinical isolate of Acinetobacter baumannii) for CC(C)(N)[C@H](NC(=O)c1ccc(C#C/C=C/C2CC2)cc1)C(=O)NO .
Reply | < 2 µg/mL

Ask | Specify the recorded MIC for C[C@@H](NCC(=O)NC[C@H](NC(=O)c1ccc(C#Cc2ccccc2)cc1)C(=O)NO)c1ccccc1 , system: AABA1060 (clinical isolate of Acinetobacter baumannii).
Reply | 2 to 16 µg/mL

Ask | GET MIC | system: AABA1060 (clinical isolate of Acinetobacter baumannii) | item: C[C@@H](O)[C@H](NC(=O)c1ccc(C#CC#Cc2ccc(CO)cc2)cc1)C(=O)NO
Reply | < 2 µg/mL

Ask | Specify the recorded MIC for C[C@@H](N)[C@H](NC(=O)c1ccc(C#CC#CCCCO)cc1)C(=O)NO , system: AABA1060 (clinical isolate of Acinetobacter baumannii).
Reply | 16 to 64 µg/mL
